// reported MIC per item
system: Escherichia coli, A15119; assay: In vitro antibacterial activity (MIC), serial 2-fold dilution; assay type: cell-based; details: Escherichia coli A15119; Mueller-Hinton; 37°C, 17 h; read-out: Antibacterial Activity MIC E. coli
Counter-ions that a name gives are not always drawn.
outcome_measure: MIC (µg/mL)

[[record]]
molecule = "C[C@H](N)C(=O)N[C@@H](C)C(=O)NCC[C@H]1C(SCCC#N)=C(C(=O)O)N2C(=O)[C@H]([C@@H](C)O)[C@@H]12 [Example 146]"
measured_number = 0.125

[[record]]
molecule = "CNCCC[C@H]1C(SCCC#N)=C(C(=O)O)N2C(=O)[C@H]([C@@H](C)O)[C@@H]12 [Example 154]"
measured_number = 0.25

[[record]]
molecule = "C[C@@H](O)[C@H]1C(=O)N2C(C(=O)O)=C(SCCN)[C@H](CCCN)[C@H]12 [Example 117]"
measured_number = 0.13

[[record]]
molecule = "C[C@H](N)C(=O)NCC[C@H]1C(SCCC#N)=C(C(=O)O)N2C(=O)[C@H]([C@@H](C)O)[C@@H]12 [Example 145]"
measured_number = 0.125

[[record]]
molecule = "C[C@@H](O)[C@H]1C(=O)N2C(C(=O)O)=C(SCCC#N)[C@H](CCN3CCN(C)CC3)[C@H]12 [Example 126]"
measured_number = 0.008

[[record]]
molecule = "C[C@@H](O)[C@H]1C(=O)N2C(C(=O)O)=C(SCCOC(N)=O)[C@H](CCCCNC(=N)N)[C@H]12 [Example 100]"
measured_number = 0.008

[[record]]
molecule = "C[C@@H](O)[C@H]1C(=O)N2C(C(=O)O)=C(SCCNC(=N)N)[C@H](CCNC(=N)N)[C@H]12 [Example 135, acetic acid salt]"
measured_number = 0.015

[[record]]
molecule = "C[C@@H](O)[C@H]1C(=O)N2C(C(=O)O)=C(SCCN3CCCC3)[C@H](CCCN)[C@H]12 [Example 120, acetic acid salt]"
measured_number = 0.13

[[record]]
molecule = "C[C@@H](O)[C@H]1C(=O)N2C(C(=O)O)=C(SCCC#N)[C@H](CCN)[C@H]12 [Example 36]"
measured_number = 0.008

[[record]]
molecule = "C[C@@H](O)[C@H]1C(=O)N2C(C(=O)O)=C(SCCC#N)[C@H](CCN(C)CCC#N)[C@H]12 [Example 124]"
measured_number = 0.03

[[record]]
molecule = "C[C@@H](O)[C@H]1C(=O)N2C(C(=O)O)=C(SCc3ccccn3)[C@H](CCN)[C@H]12 [Example 3]"
measured_number = 0.016

[[record]]
molecule = "CSC1=C(C(=O)O)N2C(=O)[C@H]([C@@H](C)O)[C@H]2[C@H]1CCCCN [Example 92]"
measured_number = 0.06

[[record]]
molecule = "C[C@@H](O)[C@H]1C(=O)N2C(C(=O)O)=C(SCCN3CCCC3)[C@H](CCCNC(=N)N)[C@H]12 [Example 127, acetic acid salt]"
measured_number = 0.13

[[record]]
molecule = "C[C@@H](O)[C@H]1C(=O)N2C(C(=O)[O-])=C(SCCC#N)[C@H](CC[n+]3ccccc3)[C@H]12 [Example 136]"
measured_number = 0.007


----------
experiment: Chemical stability in aqueous solution (half-life); assay type: physicochemical; settings: 37°C, 10^-4 M, pH 7.4, aqueous solution; read-out: Half-life (T 1/2) (converted)
Counter-ions that a name gives are not always drawn.
outcome_measure: half-life at 100 µM (min)

[[record]]
molecule = "C[C@@H](O)[C@H]1C(=O)N2C(C(=O)O)=C(SCCC#N)[C@H](CCCCNC=N)[C@H]12"
outcome_measure = "half-life at 100 µM"
measured_number = 7020

[[record]]
molecule = "C[C@@H](O)[C@H]1C(=O)N2C(C(=O)O)=C(SCCOC(N)=O)[C@H](CCCCNC(=N)N)[C@H]12"
outcome_measure = "half-life at 100 µM"
measured_number = 10800

[[record]]
molecule = "C[C@@H](O)[C@H]1C(=O)N2C(C(=O)O)=C(SCCN)[C@H](CCCN)[C@H]12"
outcome_measure = "half-life at 100 µM"
measured_number = 1980

[[record]]
molecule = "C[C@@H](O)[C@H]1C(=O)N2C(C(=O)O)=C(SCC(=N)N(C)C)[C@H](CCCN)[C@H]12 [Example 130, acetic acid salt]"
outcome_measure = "half-life at 100 µM"
measured_number = 960

[[record]]
molecule = "C[C@@H](O)[C@H]1C(=O)N2C(C(=O)O)=C(SCc3ccccn3)[C@H](CCN)[C@H]12"
outcome_measure = "half-life at 100 µM"
measured_number = 192

[[record]]
molecule = "C[C@@H](O)[C@H]1C(=O)N2C(C(=O)O)=C(SCCN3CCCC3)[C@H](CCCN)[C@H]12 [Example 120, acetic acid salt]"
outcome_measure = "half-life at 100 µM"
measured_number = 1380

[[record]]
molecule = "C[C@@H](O)[C@H]1C(=O)N2C(C(=O)[O-])=C(SCCC#N)[C@H](CC[n+]3ccccc3)[C@H]12"
outcome_measure = "half-life at 100 µM"
measured_number = 1020


----------
tested on: Streptococcus pneumoniae, A9585; assay: In vitro antibacterial activity (MIC), serial 2-fold dilution; assay type: cell-based; settings: Streptococcus pneumoniae A9585; Mueller-Hinton; 37°C, 17 h; read-out: Antibacterial Activity MIC S. pn.
Structures can show the parent of a compound that is named as a salt.
// reported MIC per item
outcome_measure: MIC (µg/mL)

[[record]]
compound = "C[C@@H](O)[C@H]1C(=O)N2C(C(=O)O)=C(SCCCC#N)[C@H](CCN)[C@H]12 [Example 47]"
target_under_test = "Streptococcus pneumoniae, A9585"
outcome_measure = "MIC"
measured_number = 0.5

[[record]]
compound = "C[C@@H](O)[C@H]1C(=O)N2C(C(=O)O)=C(SCc3cccnc3)[C@H](CCN)[C@H]12 [Example 24]"
target_under_test = "Streptococcus pneumoniae, A9585"
outcome_measure = "MIC"
measured_number = 0.13

[[record]]
compound = "C[C@@H](O)[C@H]1C(=O)N2C(C(=O)O)=C(SCCC#N)[C@H](CCN3CCOCC3)[C@H]12 [Example 49]"
target_under_test = "Streptococcus pneumoniae, A9585"
outcome_measure = "MIC"
measured_number = 0.008

[[record]]
compound = "C[C@@H](O)[C@H]1C(=O)N2C(C(=O)O)=C(SCC(=N)N(C)C)[C@H](CCCN)[C@H]12 [Example 130, acetic acid salt]"
target_under_test = "Streptococcus pneumoniae, A9585"
outcome_measure = "MIC"
measured_number = 0.13

[[record]]
compound = "C[C@@H](O)[C@H]1C(=O)N2C(C(=O)O)=C(SCc3ccncc3)[C@H](CCCN)[C@H]12 [Example 44]"
target_under_test = "Streptococcus pneumoniae, A9585"
outcome_measure = "MIC"
measured_number = 0.03

[[record]]
compound = "C[C@H](N)C(=O)N[C@@H](C)C(=O)NCC[C@H]1C(SCCC#N)=C(C(=O)O)N2C(=O)[C@H]([C@@H](C)O)[C@@H]12 [Example 146]"
target_under_test = "Streptococcus pneumoniae, A9585"
outcome_measure = "MIC"
measured_number = 0.25

[[record]]
compound = "C[C@@H](O)[C@H]1C(=O)N2C(C(=O)O)=C(SCCC#N)[C@H](CCN(C)CCC#N)[C@H]12 [Example 124]"
target_under_test = "Streptococcus pneumoniae, A9585"
outcome_measure = "MIC"
measured_number = 0.016

[[record]]
compound = "C[C@@H](O)[C@H]1C(=O)N2C(C(=O)O)=C(SCCC#N)[C@H](CCSCCN)[C@H]12 [Example 131]"
target_under_test = "Streptococcus pneumoniae, A9585"
outcome_measure = "MIC"
measured_number = 0.25

[[record]]
compound = "C[C@@H](O)[C@H]1C(=O)N2C(C(=O)O)=C(SCCO)[C@H](CCCCN(C)C)[C@H]12 [Example 91]"
target_under_test = "Streptococcus pneumoniae, A9585"
outcome_measure = "MIC"
measured_number = 0.5

[[record]]
compound = "C[C@@H](O)[C@H]1C(=O)N2C(C(=O)O)=C(SCCN3CCCC3)[C@H](CCCNC(=N)N)[C@H]12 [Example 127, acetic acid salt]"
target_under_test = "Streptococcus pneumoniae, A9585"
outcome_measure = "MIC"
measured_number = 0.06

[[record]]
compound = "C[C@@H](O)[C@H]1C(=O)N2C(C(=O)O)=C(SCCC#N)[C@H](CCN3CCN(C)CC3)[C@H]12 [Example 126]"
target_under_test = "Streptococcus pneumoniae, A9585"
outcome_measure = "MIC"
measured_number = 0.016

[[record]]
compound = "C[C@@H](O)[C@H]1C(=O)N2C(C(=O)O)=C(SCc3cn(C)nn3)[C@H](CCCNC=N)[C@H]12 [Example 94]"
target_under_test = "Streptococcus pneumoniae, A9585"
outcome_measure = "MIC"
measured_number = 0.06

[[record]]
compound = "CNCCC[C@H]1C(SCCC#N)=C(C(=O)O)N2C(=O)[C@H]([C@@H](C)O)[C@@H]12 [Example 154]"
target_under_test = "Streptococcus pneumoniae, A9585"
outcome_measure = "MIC"
measured_number = 0.5

[[record]]
compound = "C[C@@H](O)[C@H]1C(=O)N2C(C(=O)O)=C(SCc3csnn3)[C@H](CCNC(=N)N)[C@H]12 [Example 40]"
target_under_test = "Streptococcus pneumoniae, A9585"
outcome_measure = "MIC"
measured_number = 0.06

